target: T1, EDIII-DV2 (Dengue virus serotype 2 (DV2), UniProt P14337 581-673)
T1 construct: also called EDIII of DV2; EDIII-DVII
Endpoint name: pKd
Please note pKd is a logarithmic value: minus log10 of concentration in mol/L. Answer with that number alone.

// recorded pKd for VH_G27A (antibody, V domains shown) VH: VKLLEQSGAELVKPGASVRLSCTASAFNIKDTYMSWVKQRPEQGLEWIGRIDPENGDTKYDPKFQGKATITADTSSNTAYLHLSSLTSGDTAVYYCSRGWEGFAYWGQGTLVTVSA VL: ELVMTQTPASLAVSLGQRATISCRASENVDKYGNSFMHWYQQKAGQPPKLLIYRASELQWGIPARFSGSGSRTDFTLTINPVEADDVATYFCQRSNEVPWTFGGGTKLEIKR : 9.69
